- target: cynomolgus monkey CD98 ECD
- Sequence (as listed by the source): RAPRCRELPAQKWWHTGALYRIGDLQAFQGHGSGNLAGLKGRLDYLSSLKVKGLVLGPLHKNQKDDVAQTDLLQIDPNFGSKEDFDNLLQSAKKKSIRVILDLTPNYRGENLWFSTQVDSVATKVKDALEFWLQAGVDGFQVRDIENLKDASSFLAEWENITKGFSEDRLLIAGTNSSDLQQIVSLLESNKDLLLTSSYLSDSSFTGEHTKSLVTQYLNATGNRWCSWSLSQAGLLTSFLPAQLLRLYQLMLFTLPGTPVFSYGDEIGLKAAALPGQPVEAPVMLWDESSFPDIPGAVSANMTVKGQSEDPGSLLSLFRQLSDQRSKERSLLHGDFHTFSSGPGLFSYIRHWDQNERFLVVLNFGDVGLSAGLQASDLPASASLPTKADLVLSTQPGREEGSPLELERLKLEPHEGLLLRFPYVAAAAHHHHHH
- methodSummary: Biacore surface plasmon resonance binding kinetics (anti-Fc capture)
- studyConditions: cyCD98 ECD
We use 0.0004 s⁻¹ as the dividing line for kd: on or above the line is Yes, below is No.

Use these answered entries as a reference point.
INSERT INTO measurements (molecule, discretelabel) VALUES
  ('huAb15v3 (antibody, V domains shown) VH: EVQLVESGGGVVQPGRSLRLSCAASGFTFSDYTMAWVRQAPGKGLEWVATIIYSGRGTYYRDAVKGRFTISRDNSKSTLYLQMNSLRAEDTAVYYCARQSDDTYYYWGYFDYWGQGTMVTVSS VL: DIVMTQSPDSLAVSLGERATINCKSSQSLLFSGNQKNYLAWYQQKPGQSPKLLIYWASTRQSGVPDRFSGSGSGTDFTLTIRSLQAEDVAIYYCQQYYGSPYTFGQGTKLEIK', 'No'),
  ('huAb15v7 (antibody, V domains shown) VH: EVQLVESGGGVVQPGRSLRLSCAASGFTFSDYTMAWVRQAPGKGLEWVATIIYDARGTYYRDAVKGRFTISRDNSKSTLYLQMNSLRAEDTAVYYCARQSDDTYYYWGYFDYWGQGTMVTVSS VL: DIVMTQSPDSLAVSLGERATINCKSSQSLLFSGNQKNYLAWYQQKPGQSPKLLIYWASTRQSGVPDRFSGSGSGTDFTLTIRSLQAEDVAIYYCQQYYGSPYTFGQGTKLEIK', 'Yes'),
  ('huAb15v6 (antibody, V domains shown) VH: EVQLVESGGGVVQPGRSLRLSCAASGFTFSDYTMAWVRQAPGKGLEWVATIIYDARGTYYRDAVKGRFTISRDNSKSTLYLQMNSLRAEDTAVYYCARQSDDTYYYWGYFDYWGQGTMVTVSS VL: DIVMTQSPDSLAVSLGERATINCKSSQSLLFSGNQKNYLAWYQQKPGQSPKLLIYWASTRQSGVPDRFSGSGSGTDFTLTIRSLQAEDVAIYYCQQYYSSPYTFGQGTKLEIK', 'Yes'),
  ('huAb15v5 (antibody, V domains shown) VH: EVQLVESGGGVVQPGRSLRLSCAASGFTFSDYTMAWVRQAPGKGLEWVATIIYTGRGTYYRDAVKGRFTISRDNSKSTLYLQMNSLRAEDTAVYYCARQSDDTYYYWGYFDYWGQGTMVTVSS VL: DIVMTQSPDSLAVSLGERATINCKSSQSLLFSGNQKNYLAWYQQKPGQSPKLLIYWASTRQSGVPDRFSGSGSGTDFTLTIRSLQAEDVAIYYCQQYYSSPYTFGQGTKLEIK', 'No'),
  ('huAb101: "heavy chain variable sequence of huAb101 is provided in SEQ ID NO: 106"; "light chain variable sequence ... in SEQ ID NO: 107" (antibody, V domains shown) VH: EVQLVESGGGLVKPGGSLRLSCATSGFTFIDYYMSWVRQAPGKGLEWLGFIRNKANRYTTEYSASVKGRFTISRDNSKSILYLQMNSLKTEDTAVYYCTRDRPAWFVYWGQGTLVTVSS VL: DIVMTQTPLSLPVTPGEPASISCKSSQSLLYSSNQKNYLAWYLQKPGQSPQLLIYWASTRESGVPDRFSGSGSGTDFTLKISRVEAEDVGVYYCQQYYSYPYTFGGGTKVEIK', 'Yes');

Lab note: next molecule to report on.
## Task Say whether huAb103: "heavy chain variable sequence of huAb103 is provided in SEQ ID NO: 109"; "light chain variable sequence ... in SEQ ID NO: 107" (antibody, V domains shown) VH: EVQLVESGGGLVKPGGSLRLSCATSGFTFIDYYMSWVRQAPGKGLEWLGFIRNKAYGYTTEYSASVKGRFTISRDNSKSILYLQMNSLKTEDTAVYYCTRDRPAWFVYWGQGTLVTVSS VL: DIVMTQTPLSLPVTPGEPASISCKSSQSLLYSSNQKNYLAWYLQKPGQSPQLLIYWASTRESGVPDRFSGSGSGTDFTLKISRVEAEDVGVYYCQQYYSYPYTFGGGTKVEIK shows kd of 0.0004 s⁻¹ or more.
## Result Yes
